# tested.on: human PPARγ receptor (Homo sapiens)
# Construct: corresponding to Ser204-Tyr506 for human PPARγ1 receptor and human PPARγ2; expressed in transfected cells; host or cells: CV-1 cells (pSG5-based expression vector)
# Sequence (P37231 204-505 limits assumed): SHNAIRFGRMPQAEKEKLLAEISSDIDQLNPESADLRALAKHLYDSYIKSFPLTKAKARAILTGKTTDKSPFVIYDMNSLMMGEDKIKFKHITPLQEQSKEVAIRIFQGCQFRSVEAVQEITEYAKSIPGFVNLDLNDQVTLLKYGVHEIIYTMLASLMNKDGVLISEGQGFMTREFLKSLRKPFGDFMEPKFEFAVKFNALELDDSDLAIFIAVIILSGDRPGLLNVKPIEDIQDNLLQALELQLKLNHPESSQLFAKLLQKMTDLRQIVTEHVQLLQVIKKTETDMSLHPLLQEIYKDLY
# procedure.text: Luciferase reporter assay of PPARγ agonist activity (Gal4-PPARγ chimera receptor in CV-1 cells)
# Type: cell-based
# condition.label: CV-1, 0.1 μM compound, luciferase activity with 1 μM Pioglitazone taken as 100, read-out: PPAR γ agonist activity, relative activity
Counter-ions that a name gives are not always drawn.
What Emax at 0.1 µM was measured for each of the following?
Numbers only here, please. The scale is %.

Query :: Name the reported Emax at 0.1 µM value associated with the compound CCOC(Cc1ccc(OCc2cnc3c(Cl)cccc3c2OC(C)C)cc1)C(=O)O (stereo not shown) [Example 13 (76)]
Result :: 104

Query :: Name the reported Emax at 0.1 µM value associated with the compound CNC(=O)C(Cc1ccc(OCc2cnc3ccc(OC)cc3c2OC(C)C)cc1)C(C)=O (stereo not shown) [Example 24 (141)]
Result :: 0.8

Query :: Name the reported Emax at 0.1 µM value associated with the compound CCOC(Cc1ccc(OCc2cnc3ccc(CC)cc3c2OC(C)C)cc1)C(=O)O (stereo not shown) [Example 6 (67)]
Result :: 122

Query :: Name the reported Emax at 0.1 µM value associated with the compound CCC(=O)C(Cc1ccc(OCc2cnc3ccc(OC)cc3c2OC(C)C)cc1)C(=O)OC (stereo not shown) [Example 23 (137), hydrochloride]
Result :: 2.8

----------
# tested.on: human PPARγ receptor (Homo sapiens)
# Construct: corresponding to Ser204-Tyr506 for human PPARγ1 receptor and human PPARγ2; expressed in transfected cells; host or cells: CV-1 cells (pSG5-based expression vector)
# procedure.text: Luciferase reporter assay of PPARγ agonist activity (Gal4-PPARγ chimera receptor in CV-1 cells)
# Type: cell-based
# condition.label: CV-1, 10 μM compound, luciferase activity with 1 μM Pioglitazone taken as 100, read-out: PPAR γ agonist activity, relative activity
Counter-ions that a name gives are not always drawn.
value.kind: Emax at 10 µM (%)
Numbers only here, please. The scale is %.

Query :: Name the reported Emax at 10 µM value associated with the compound "COc1ccc2ncc(COc3ccc(C=C(C(C)=O)C(C)=O)cc3)c(OC(C)C)c2c1"
Result :: 12.8

Query :: Name the reported Emax at 10 µM value associated with the compound CCOC(Cc1ccc(OC)c(OCc2cnc3ccc(OC)cc3c2OC(C)C)c1)C(=O)O (centres unmarked)
Result :: 22.4

Query :: Name the reported Emax at 10 µM value associated with the compound CCOC(Cc1ccc(OCc2cnc3cc(C(F)(F)F)ccc3c2OC(C)C)cc1)C(=O)O (centres unmarked)
Result :: 111

Query :: Name the reported Emax at 10 µM value associated with the compound CCC(=O)C(Cc1ccc(OCc2cnc3ccc(OC)cc3c2OC(C)C)cc1)C(=O)OC (centres unmarked) [Example 23 (137), hydrochloride]
Result :: 63.1

Query :: Name the reported Emax at 10 µM value associated with the compound "COc1ccc2ncc(COc3ccc(/C=C(\Sc4ccccc4)C(=O)O)cc3)c(OC(C)C)c2c1"
Result :: 89.9

Query :: Name the reported Emax at 10 µM value associated with the compound CCOC(Cc1ccc(OCc2cnc3cc(OC)c(OC)cc3c2OC(C)C)cc1)C(=O)O (centres unmarked)
Result :: 107

Query :: Name the reported Emax at 10 µM value associated with the compound CCOC(Cc1ccc(OCc2cnc3c(F)cccc3c2OC(C)C)cc1)C(=O)O (centres unmarked)
Result :: 125

Query :: Name the reported Emax at 10 µM value associated with the compound COC(=O)C(Cc1ccc(OCc2cnc3ccc(OC)cc3c2OC(C)C)cc1)C(=O)OC [Example 22 (120), hydrochloride]
Result :: 108
